# test description: chemical genetic growth profiling, strain panel (AID 1159580);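 also: tested at 20 µM; growth read once vehicle control cultures reached saturation at 30 °C; 1 = growth at the plate median or of vehicle wells; lower values mean less growth of the strain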
# cond: S. cerevisiae deletion strains, growth OD, locus YER002W, strain NOP16, hits give low values
Hit rate of the full screen: of about 5,500 compounds, about 2,000 (36%) were called active. About 18% were inconclusive and are not listed. This is one part of the list.
readout: normalized growth

1. Nc1nnc(-c2cccc(Cl)c2Cl)c(N)n1; 0.976
2. COc1ccc(CCCOc2cc(CCn3ccnc3)ccc2OC)cc1; 1.03
3. Cc1ccc(C(=O)O[C@H](C(=O)O)[C@H](OC(=O)c2ccc(C)cc2)C(=O)O)cc1; 1.01
4. C=CCc1ccccc1OCC(O)CNC(C)C (stereo unspecified); 0.975
5. C=CCc1ccccc1OCC(O)CN[C@]1(C)CCC[C@H](C(C)(C)NC(=O)CBr)C1 (stereo partly specified); 1.02
6. CN1CC(O)C(O)C(O)C1CO (stereo unspecified); 1.01
